- Test system: Zika virus NS2B-NS3 protease (linked construct)
- Method: 384 well plate NINDS Rhodamine confirmatory qHTS for Zika virus inhibitors (AID 1347164);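 also: fluorescence from protease cleavage of Ac-LKRR-rhodamine 110 substrate; potency is read from the fitted curve at half-maximal effect; nearly all actives have a fitted effect of over 65% in size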
- Study Conditions: rhodamine-110 peptide substrate fluorescence; series mostly up to 100 µM
Records with an inconclusive call do not appear. The source made the active and inactive calls. Calls follow the shape of the dose curve; as a rule, active = well fitted inhibition curve with a large enough effect; inconclusive = small, poorly fitted or top-dose-only effect; inactive = no such curve, though single readings can be large or run the other way.
Measure Name: Potency

Cc1ccc([C@@H]2CC=C(C(=O)O)[C@H](c3ccc(C(C)(C)C)cc3)N2S(=O)(=O)c2ccc(C)cc2)cc1	4.47 µM (active)
C/C=C/C=C/C=C/C(=O)O[C@@H]1[C@@H](OC)C2=C(C(=O)N(C(CCC(=O)O)C(=O)O)C2)[C@@]2(C)CCCC(C)(C)[C@H]12 (some centres undefined)	15.8 µM (active)
C=C1C2CCC3C(CCC4[C@@]3(C)CCC[C@@]4(C)C(=O)O)(C2)[C@@H]1OC(=O)/C(C)=C\C (some centres undefined)	8.91 µM (active)

Read the next record carefully.
stdin: Give Potency for the following molecule: CC1C(O)C(O)C2C(C(=O)OCCc3ccc(O)cc3)=COC(O[C@@H]3O[C@H](CO)[C@@H](O)[C@H](O)[C@H]3O)C12 (some centres undefined)
stdout: 3.98 µM (active)

====

- Assayed Target: Nicotinamide N-methyltransferase (Homo sapiens) (UniProt P40261)
- Sequence (P40261 whole entry, looked up): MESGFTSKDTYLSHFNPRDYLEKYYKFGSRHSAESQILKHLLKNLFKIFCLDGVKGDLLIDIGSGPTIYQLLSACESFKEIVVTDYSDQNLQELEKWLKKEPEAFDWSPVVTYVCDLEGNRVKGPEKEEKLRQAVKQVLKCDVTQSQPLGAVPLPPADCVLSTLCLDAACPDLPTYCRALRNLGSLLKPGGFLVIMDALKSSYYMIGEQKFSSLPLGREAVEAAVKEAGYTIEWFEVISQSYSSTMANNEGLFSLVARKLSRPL
- Method: Confirmatory Screen for Target Class Profiling of Small Molecule Inhibitors of Methyltransferases (AID 1745852)
- Study Conditions: MTase-Glo luminescence, SAH detection, recombinant enzyme; measured here: NNMT max response; stronger effect = lower value
Kindly supply the reported activity values for the records listed here.
Answers are plain numbers, in %.

As a guide, the following entries are already answered.
COc1ccc(CC(NC(C)=O)C(=O)O)cc1 (stereo not given)	1.04
O=C(O)CC1(O)C(=O)Nc2ccccc21 (stereo not given)	4.18
COc1c2cc(c(O[C@@H]3O[C@H](CO)[C@@H](O)[C@H](O)[C@H]3O)c1OC)CCCCC(O)CCc1ccc(O)c-2c1 (stereo not given in full)	-5.32
O=c1[nH]ccc2nc(-c3ccc(CN4CCC(c5nc(-c6ccccn6)n[nH]5)CC4)cc3)c(-c3ccccc3)cc12	-47.8
C/C(=C\CC/C(C)=C/CC[C@]1(C)CCc2cc(O)cc(C)c2O1)CC/C=C(\C)C(=O)O	-14.3

Would you be so kind as to report activity for each listed record?
1. O=C(O)Cn1nnc(-c2ccc(CN(CCCCOc3ccc(CN4CCCC4)cc3)CCc3ccccc3)cc2)n1
2. Nc1ncnc2c1ncn2[C@H]1O[C@@H](C(=O)N2CCN(CC(=O)Nc3cccc4c3CNC4=O)CC2)[C@H](O)[C@@H]1O
3. COc1cc(C2Oc3c(OC)cc(/C=C/C(=O)OC4CC(O)(C(=O)O)CC(O)C4O)cc3C2CO)ccc1O (stereo not given)

stdout:
1. -1.13
2. -14.5
3. -1.14

Please look at the items below and tell me activity for each one, in order.
1. CC(=O)OC/C(=C/C(=O)O)CC[C@@H]1C(CO)=CC[C@@H]2C(C)(C)CCC[C@@]12C
2. N#Cc1cccc(-c2c[nH]c3ncnc(N4CCOCC4)c23)c1

stdout:
-8.71
-64.5

====

- Method: Tertiary RLuc qRT-PCR qHTS assay for Zika virus inhibitors (AID 1347169); also: nearly all actives have a fitted effect of over 55% in size; also: potency is read from the fitted curve at half-maximal effect
- Study Conditions: infected Vero cells, reporter luminescence, 48-72 h; series mostly up to 45.9 µM
Results filed as inconclusive are left out. The source made the active and inactive calls. The call rests on the fitted dose curve; in most records, active means well fitted inhibition curve with a large enough effect; inconclusive means small, poorly fitted or top-dose-only effect; inactive means no such curve, though single readings can be large or run the other way.
Measure Name: Potency

CO[C@H]1c2cc(C(C)C)c(O)c(O)c2[C@@]23CCCC(C)(C)C2[C@@H]1OC3=O (some centres undefined)	inactive
CC(C)=CCC[C@@](C)(O)[C@H]1CC[C@]2(C)[C@@H]1[C@H](O)CC1[C@@]3(C)CC[C@H](O[C@@H]4O[C@H](CO)[C@@H](O)[C@H](O)[C@H]4O[C@@H]4O[C@H](CO)[C@@H](O)[C@H](O)[C@H]4O)C(C)(C)[C@@H]3CC[C@]12C (some centres undefined)	inactive
Cc1ccc([C@@H]2CC=C(C(=O)O)[C@H](c3ccc(C(C)(C)C)cc3)N2S(=O)(=O)c2ccc(C)cc2)cc1	18.6 µM (active)
COc1cc(CCCO)ccc1O[C@@H]1O[C@H](CO)[C@@H](O)[C@H](O)[C@H]1O	inactive
